From: ChEMBL document CHEMBL3044821

Tested on: Candida albicans
Test: Antifungal activity against Candida albicans MTCC 227 assessed as growth inhibition after 24 to 48 hr by NCCLS broth microdilution method
Assay type: functional
reported endpoint: MIC

compound="C=CCn1c(=O)c(C2C3=C(CC(C)(C)CC3=O)OC3=C2C(=O)c2ccccc2C3=O)cc2cc(C)ccc21 (configuration not stated)" reported_endpoint=MIC reported_result="> 1000 µg/mL"
compound="COC1=CC(=O)C[C@@H](C)[C@]12Oc1c(Cl)c(OC)cc(OC)c1C2=O [GRISEOFULVIN]" reported_endpoint=MIC reported_result="500 µg/mL"
compound="C=CCn1c(=O)c(C2C3=C(CC(C)(C)CC3=O)OC3=C2C(=O)c2ccccc2C3=O)cc2ccccc21 (configuration not stated)" reported_endpoint=MIC reported_result="> 1000 µg/mL"
compound="C=CCn1c(=O)c(C2C3=C(CC(C)(C)CC3=O)OC3=C2C(=O)c2ccccc2C3=O)cc2cc(Cl)ccc21 (configuration not stated)" reported_endpoint=MIC reported_result="> 1000 µg/mL"
compound="C=CCn1c(=O)c(C2C3=C(CCCC3=O)OC3=C2C(=O)c2ccccc2C3=O)cc2cc(Cl)ccc21 (configuration not stated)" reported_endpoint=MIC reported_result="500 µg/mL"
compound="C=CCn1c(=O)c(C2C(C(=O)OC(C)C)=C(N)OC3=C2C(=O)c2ccccc2C3=O)cc2cc(OC)ccc21 (configuration not stated)" reported_endpoint=MIC reported_result="1000 µg/mL"
compound="C=CCn1c(=O)c(C2C3=C(CC(C)(C)CC3=O)OC3=C2C(=O)c2ccccc2C3=O)cc2cc(OC)ccc21 (configuration not stated)" reported_endpoint=MIC reported_result="1000 µg/mL"
compound="C=CCn1c(=O)c(C2C3=C(CCCC3=O)OC3=C2C(=O)c2ccccc2C3=O)cc2cc(C)ccc21 (configuration not stated)" reported_endpoint=MIC reported_result="500 µg/mL"
compound="C=CCn1c(=O)c(C2C3=C(CCCC3=O)OC3=C2C(=O)c2ccccc2C3=O)cc2cc(OC)ccc21 (configuration not stated)" reported_endpoint=MIC reported_result="1000 µg/mL"
compound="C=CCn1c(=O)c(C2C(C(=O)OC(C)C)=C(N)OC3=C2C(=O)c2ccccc2C3=O)cc2cc(C)ccc21 (configuration not stated)" reported_endpoint=MIC reported_result="> 1000 µg/mL"
compound="C=CCn1c(=O)c(C2C(C#N)=C(N)OC3=C2C(=O)c2ccccc2C3=O)cc2cc(OC)ccc21 (configuration not stated)" reported_endpoint=MIC reported_result="1000 µg/mL"
compound="C=CCn1c(=O)c(C2C3=C(CCCC3=O)OC3=C2C(=O)c2ccccc2C3=O)cc2ccccc21 (configuration not stated)" reported_endpoint=MIC reported_result="250 µg/mL"
compound="C=CCn1c(=O)c(C2C(C#N)=C(N)OC3=C2C(=O)c2ccccc2C3=O)cc2cc(Cl)ccc21 (configuration not stated)" reported_endpoint=MIC reported_result="500 µg/mL"
compound="C=CCn1c(=O)c(C2C(C#N)=C(N)OC3=C2C(=O)c2ccccc2C3=O)cc2cc(C)ccc21 (configuration not stated)" reported_endpoint=MIC reported_result="1000 µg/mL"
compound="C=CCn1c(=O)c(C2C(C#N)=C(N)OC3=C2C(=O)c2ccccc2C3=O)cc2ccccc21 (configuration not stated)" reported_endpoint=MIC reported_result="250 µg/mL"
compound="C=CCn1c(=O)c(C2C(C(=O)OC(C)C)=C(N)OC3=C2C(=O)c2ccccc2C3=O)cc2ccccc21 (configuration not stated)" reported_endpoint=MIC reported_result="500 µg/mL"
compound="C=CCn1c(=O)c(C2C(C(=O)OC(C)C)=C(N)OC3=C2C(=O)c2ccccc2C3=O)cc2cc(Cl)ccc21 (configuration not stated)" reported_endpoint=MIC reported_result="500 µg/mL"

* * *

Test system: Escherichia coli
Assay: Antibacterial activity against Escherichia coli MTCC 443 assessed as growth inhibition after 24 to 48 hr by NCCLS broth microdilution method
Type: functional
reported endpoint: log10(MIC) (log10 of the value in µg/mL)

compound=O=C(N[C@H](CO)[C@H](O)c1ccc([N+](=O)[O-])cc1)C(Cl)Cl reported_result=1.70
compound="C=CCn1c(=O)c(C2C3=C(CCCC3=O)OC3=C2C(=O)c2ccccc2C3=O)cc2cc(C)ccc21 (centres undefined)" reported_result=2.70
compound="C=CCn1c(=O)c(C2C(C#N)=C(N)OC3=C2C(=O)c2ccccc2C3=O)cc2cc(OC)ccc21 (centres undefined)" reported_result=2.10
compound="C=CCn1c(=O)c(C2C(C#N)=C(N)OC3=C2C(=O)c2ccccc2C3=O)cc2cc(C)ccc21 (centres undefined)" reported_result=2.40
compound="C=CCn1c(=O)c(C2C(C#N)=C(N)OC3=C2C(=O)c2ccccc2C3=O)cc2ccccc21 (centres undefined)" reported_result=2.00
compound="C=CCn1c(=O)c(C2C3=C(CCCC3=O)OC3=C2C(=O)c2ccccc2C3=O)cc2cc(OC)ccc21 (centres undefined)" reported_result=2.40
compound=O=C(O)c1cn(C2CC2)c2cc(N3CCNCC3)c(F)cc2c1=O reported_result=1.40
compound=CC1(C)S[C@@H]2[C@H](NC(=O)[C@H](N)c3ccccc3)C(=O)N2[C@H]1C(=O)O reported_result=2.00
compound="C=CCn1c(=O)c(C2C3=C(CC(C)(C)CC3=O)OC3=C2C(=O)c2ccccc2C3=O)cc2ccccc21 (centres undefined)" reported_result=2.00
compound="C=CCn1c(=O)c(C2C3=C(CC(C)(C)CC3=O)OC3=C2C(=O)c2ccccc2C3=O)cc2cc(OC)ccc21 (centres undefined)" reported_result=2.10
compound="C=CCn1c(=O)c(C2C(C(=O)OC(C)C)=C(N)OC3=C2C(=O)c2ccccc2C3=O)cc2cc(C)ccc21 (centres undefined)" reported_result=1.40
compound="C=CCn1c(=O)c(C2C(C#N)=C(N)OC3=C2C(=O)c2ccccc2C3=O)cc2cc(Cl)ccc21 (centres undefined)" reported_result=2.30
compound="C=CCn1c(=O)c(C2C3=C(CCCC3=O)OC3=C2C(=O)c2ccccc2C3=O)cc2ccccc21 (centres undefined)" reported_result=2.30
compound="C=CCn1c(=O)c(C2C(C(=O)OC(C)C)=C(N)OC3=C2C(=O)c2ccccc2C3=O)cc2cc(Cl)ccc21 (centres undefined)" reported_result=2.30
compound="C=CCn1c(=O)c(C2C3=C(CC(C)(C)CC3=O)OC3=C2C(=O)c2ccccc2C3=O)cc2cc(C)ccc21 (centres undefined)" reported_result=1.80
compound="C=CCn1c(=O)c(C2C3=C(CC(C)(C)CC3=O)OC3=C2C(=O)c2ccccc2C3=O)cc2cc(Cl)ccc21 (centres undefined)" reported_result=2.30
compound="C=CCn1c(=O)c(C2C(C(=O)OC(C)C)=C(N)OC3=C2C(=O)c2ccccc2C3=O)cc2ccccc21 (centres undefined)" reported_result=2.30
compound="C=CCn1c(=O)c(C2C(C(=O)OC(C)C)=C(N)OC3=C2C(=O)c2ccccc2C3=O)cc2cc(OC)ccc21 (centres undefined)" reported_result=2.40
compound="C=CCn1c(=O)c(C2C3=C(CCCC3=O)OC3=C2C(=O)c2ccccc2C3=O)cc2cc(Cl)ccc21 (centres undefined)" reported_result=2.40

* * *

System: Streptococcus pyogenes
Assay: Antibacterial activity against Streptococcus pyogenes MTCC 442 assessed as growth inhibition after 24 to 48 hr by NCCLS broth microdilution method
Format: functional
reported endpoint: MIC (µg/mL)

molecule="C=CCn1c(=O)c(C2C3=C(CC(C)(C)CC3=O)OC3=C2C(=O)c2ccccc2C3=O)cc2ccccc21 (stereo not drawn)" experimental_system="Streptococcus pyogenes" reported_endpoint=MIC reported_result=200
molecule="C=CCn1c(=O)c(C2C3=C(CC(C)(C)CC3=O)OC3=C2C(=O)c2ccccc2C3=O)cc2cc(OC)ccc21 (stereo not drawn)" experimental_system="Streptococcus pyogenes" reported_endpoint=MIC reported_result=250
molecule="C=CCn1c(=O)c(C2C(C#N)=C(N)OC3=C2C(=O)c2ccccc2C3=O)cc2cc(Cl)ccc21 (stereo not drawn)" experimental_system="Streptococcus pyogenes" reported_endpoint=MIC reported_result=100
molecule="C=CCn1c(=O)c(C2C(C(=O)OC(C)C)=C(N)OC3=C2C(=O)c2ccccc2C3=O)cc2cc(Cl)ccc21 (stereo not drawn)" experimental_system="Streptococcus pyogenes" reported_endpoint=MIC reported_result=500
molecule="C=CCn1c(=O)c(C2C3=C(CCCC3=O)OC3=C2C(=O)c2ccccc2C3=O)cc2ccccc21 (stereo not drawn)" experimental_system="Streptococcus pyogenes" reported_endpoint=MIC reported_result=125
molecule="C=CCn1c(=O)c(C2C(C(=O)OC(C)C)=C(N)OC3=C2C(=O)c2ccccc2C3=O)cc2cc(C)ccc21 (stereo not drawn)" experimental_system="Streptococcus pyogenes" reported_endpoint=MIC reported_result=500
molecule="C=CCn1c(=O)c(C2C3=C(CC(C)(C)CC3=O)OC3=C2C(=O)c2ccccc2C3=O)cc2cc(C)ccc21 (stereo not drawn)" experimental_system="Streptococcus pyogenes" reported_endpoint=MIC reported_result=250
molecule="C=CCn1c(=O)c(C2C3=C(CC(C)(C)CC3=O)OC3=C2C(=O)c2ccccc2C3=O)cc2cc(Cl)ccc21 (stereo not drawn)" experimental_system="Streptococcus pyogenes" reported_endpoint=MIC reported_result=500
